Assay: NCI Yeast Anticancer Drug Screen. Data for the mlh1 rad18 strain (AID 175)
Conditions: S. cerevisiae mlh1 rad18 strain growth inhibition; at 5.0 µM (retest, dose inferred, filed as 0.5); active compounds read high
Protocol: Growth inhibition of yeast strains with defined genetic alterations is measured as a screen for potential anti-cancer activity. Selected strains with alterations in DNA damage repair or cell cycle control were exposed to compounds and growth inhibition was measured relative to vehicle treated controls. The strain used in this assay is mlh1 rad18
The panel holds about 79,000 compounds, 15% with a hit somewhere; the sample as a whole holds those more often.
Reported growth inhibition values are given for each entry in this list.
Answer with a number only, understood to be in %.

Here's what some known entries look like.
CCCCC(=O)N/N=C/c1ccc([N+](=O)[O-])s1    7
Cc1ccc(N=NC(C(=O)c2ccccc2)C(=O)c2ccccc2)cc1    -2
CSc1nc(NN)cc(-c2ccccc2)n1    -1
COC(=O)c1ccc(/C=C/C2=CC(=O)C=CC2=O)cc1    29
CC1CCN(CCC(=O)c2cccc(O)c2)CC1    10

For the compound O=C(CCN1CCCC1)c1ccc(Oc2ccc(F)cc2)cc1 , what growth inhibition is on record?
30

CCNCCNc1cc(O)c2c(c1O)C(=O)c1ccccc1C2=O , same question.
91

Then CC(C)C(OC(=O)c1ccc(NCc2cc(O)ccc2O)cc1)C(C)C ?
27

Could you do the same for CCCCCCCCCCCCCCCCOP(=O)([O-])OCC[N+](C)(C)C , please?
98

Would you kindly repeat that for CCCCCCN(CCCCCC)CC(O)c1cc(-c2ccccc2)nc2c(O)cccc12 (configuration not stated) ?
30

Next up: CN(C(=S)c1ccccc1)c1ccccc1
-150

// repeat for O=c1[nH]c2c([N+](=O)[O-])cc(Cl)cc2nc1/C=C(\O)c1ccccc1 and report
-9

---

test: NCI Yeast Anticancer Drug Screen. Data for the rad50 strain (AID 155);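 also: 0% = growth of vehicle-only cultures of the same strain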; conditions: S. cerevisiae rad50 strain growth inhibition; at 50.0 µM (retest, dose inferred, filed as 5.0)
About 79,000 compounds went through this panel and 15% of them were active in at least one assay; those are over-represented in the sample as a whole. Calls of active or inactive are those of the source. Rule as the data show it: active = growth inhibition above about 70%; inactive = the rest.
A correct response names exactly one class from 1.0 for active, 0.0 for inactive

CCCCCCC(C)OC(=O)/C=C/c1ccccc1 (stereo not given)    0.0
CCOC(=O)C[n+]1c(C)cc(-c2ccccc2)cc1C    0.0

Query compound follows.
What is the recorded call for this compound in the test? Cn1cc(NC(=O)Nc2cc(C(=O)Nc3cc(C(=O)Nc4ccc5cc(S(=O)(=O)O)cc(S(=O)(=O)O)c5c4)n(C)c3)n(C)c2)cc1C(=O)Nc1cc(C(=O)Nc2ccc3cc(S(=O)(=O)O)cc(S(=O)(=O)O)c3c2)n(C)c1
1.0

---

Parameter: growth inhibition. Scope: all listed entries.
assay: NCI Yeast Anticancer Drug Screen. Data for the mec2-1 strain (AID 157); details: S. cerevisiae mec2-1 strain, at 50.0 µM (retest, dose inferred, filed as 5.0), active compounds read high
The panel holds about 79,000 compounds, 15% with a hit somewhere; the sample as a whole holds those more often. Activity calls are given as the source filed them. Rule as the data show it: active = growth inhibition above about 70%; inactive = the rest.

I would be grateful if you could share the reported growth inhibition for Cc1ccc(-c2c3c(cc4cc(C)ccc24)C(=O)OC3=O)cc1 .
12% (inactive)

Check CC1=C(C(=O)Nc2ccccc2)C(c2cccc([N+](=O)[O-])c2)C(C(=O)Nc2ccccc2)=C(C)N1 too.
63% (inactive)

Where do the numbers come from? From PubChem BioAssay (NCI).
